Source of measurements: patent US20040023887A1

I'd appreciate it if you could supply ratio over background (IR) values for the items below.
TARGET: T1, Insulin receptor prepared according to Bass et al., 1996 (soluble IR-immunoglobulin chimera) (human, UniProt P06213 28-956)
T1 construct: extracellular domain; also called sIR-Fc; soluble IR (Bass construct); not shown: immunoglobulin constant domains replacing the transmembrane and intracellular domains
PROTOCOL DESCRIPTION: phage ELISA, receptor coated on plate; A405 over non-fat milk
Give the quantity in fold over background, number only.

[ask] Let me know recorded ratio over background (IR) for CSMAAVAEAGDDDDPFYHKLSELCQGS (library tags and phage coat protein not included) [B6Hα-3-F1-IR] , thanks.
[reply] 1.3

[ask] Supply recorded ratio over background (IR) for QSGSGDFYDWLSRLIRGNGDG (library tags and phage coat protein not included) [20E2Bβ-3-C7-IR] here.
[reply] 1.5

[ask] Assign ratio over background (IR) to the following record: LSCLAYSRHGIWRPSTDLGLGRSVGEGSVSTRWRGYDWFE (tags and coat protein not included; Formula 10 (Group 6) clone) [40F-4-D1-IGFR]
[reply] 0.3

[ask] Please list ratio over background (IR) recorded for the binder SRVAATKEKRPSDDPFYHKLSELLQGS (library tags and phage coat protein not included) [B6Hα-3-F7-IR]
[reply] 1

[ask] Answer with reported ratio over background (IR) of GHYFGSFYDAIDQLVAGMLPG (library tags and phage coat protein not included) [20E2A-3-A3-IGFR]
[reply] 1.5

[ask] State its ratio over background (IR) for this binder: GCITAENGAGDPFYHKLSELGGCS (library tags and phage coat protein not included) [B6Hα-1-B3-IR]
[reply] 1.1
